TARGET: eNOS (Bos taurus, UniProt P29473)
Construct: expressed in transfected cells; host or cells: HEK293 (stably transduced)
Sequence (P29473 whole entry): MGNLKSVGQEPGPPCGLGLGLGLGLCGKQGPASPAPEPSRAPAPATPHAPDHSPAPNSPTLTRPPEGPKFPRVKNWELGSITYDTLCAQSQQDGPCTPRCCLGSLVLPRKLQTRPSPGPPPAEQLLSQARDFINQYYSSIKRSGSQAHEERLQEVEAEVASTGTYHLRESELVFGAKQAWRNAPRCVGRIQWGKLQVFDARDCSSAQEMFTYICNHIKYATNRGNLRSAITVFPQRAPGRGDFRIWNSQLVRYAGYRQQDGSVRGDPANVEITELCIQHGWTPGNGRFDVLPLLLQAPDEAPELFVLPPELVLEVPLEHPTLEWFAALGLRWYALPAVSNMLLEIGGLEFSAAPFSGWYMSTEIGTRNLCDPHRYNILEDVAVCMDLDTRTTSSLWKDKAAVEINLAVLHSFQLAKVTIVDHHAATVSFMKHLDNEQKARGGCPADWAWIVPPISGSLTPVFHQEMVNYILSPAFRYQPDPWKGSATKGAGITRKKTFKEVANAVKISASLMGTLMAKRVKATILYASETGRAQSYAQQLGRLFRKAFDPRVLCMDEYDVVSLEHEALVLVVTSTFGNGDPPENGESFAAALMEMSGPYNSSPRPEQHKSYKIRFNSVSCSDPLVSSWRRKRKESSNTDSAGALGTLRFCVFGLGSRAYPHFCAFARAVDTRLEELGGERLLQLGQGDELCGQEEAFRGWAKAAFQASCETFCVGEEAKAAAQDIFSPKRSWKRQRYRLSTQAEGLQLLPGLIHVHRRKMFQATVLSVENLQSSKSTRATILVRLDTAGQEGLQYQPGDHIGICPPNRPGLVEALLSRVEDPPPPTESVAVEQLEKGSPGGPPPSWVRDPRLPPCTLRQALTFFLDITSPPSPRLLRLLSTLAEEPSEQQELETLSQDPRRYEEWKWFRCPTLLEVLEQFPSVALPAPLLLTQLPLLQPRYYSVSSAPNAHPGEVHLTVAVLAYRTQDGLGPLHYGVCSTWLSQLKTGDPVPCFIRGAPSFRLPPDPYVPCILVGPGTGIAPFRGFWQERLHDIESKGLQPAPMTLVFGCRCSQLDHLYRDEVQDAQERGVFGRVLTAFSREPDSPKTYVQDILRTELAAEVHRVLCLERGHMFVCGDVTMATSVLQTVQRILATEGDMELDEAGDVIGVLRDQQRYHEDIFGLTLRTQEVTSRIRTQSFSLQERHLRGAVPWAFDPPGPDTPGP
METHOD_DESCRIPTION: eNOS Dimerization Inhibition assay (Griess, Hek293 cells expressing bovine eNOS)
Type: cell-based
PROPERTY_LABEL: IC50 (µM)

COc1ccc(CNC(=O)C[C@H]2CCCN2c2ccnc(-n3ccnc3)n2)cc1OC    21.1

P: O=C(C[C@H]1CCCN1c1ccnc(-n2ccnc2)n1)NCc1ccc2c(c1)OCO2
Q: CCOc1cc(CNC(=O)C[C@H]2CCCN2c2ccnc(-n3ccnc3)n2)ccc1OC
Enquiry: Recorded IC50 values differ for P and Q ; which one is higher? // output: label of the selected item
Return: Q
(Q: 57 µM, P: 18 µM)

----------
TARGET: iNOS (Mus musculus)
Construct: endogenous in cells; host or cells: Raw 264.7 cells stimulated with E. coli LPS and IFN-gamma
Sequence (P29477 whole entry): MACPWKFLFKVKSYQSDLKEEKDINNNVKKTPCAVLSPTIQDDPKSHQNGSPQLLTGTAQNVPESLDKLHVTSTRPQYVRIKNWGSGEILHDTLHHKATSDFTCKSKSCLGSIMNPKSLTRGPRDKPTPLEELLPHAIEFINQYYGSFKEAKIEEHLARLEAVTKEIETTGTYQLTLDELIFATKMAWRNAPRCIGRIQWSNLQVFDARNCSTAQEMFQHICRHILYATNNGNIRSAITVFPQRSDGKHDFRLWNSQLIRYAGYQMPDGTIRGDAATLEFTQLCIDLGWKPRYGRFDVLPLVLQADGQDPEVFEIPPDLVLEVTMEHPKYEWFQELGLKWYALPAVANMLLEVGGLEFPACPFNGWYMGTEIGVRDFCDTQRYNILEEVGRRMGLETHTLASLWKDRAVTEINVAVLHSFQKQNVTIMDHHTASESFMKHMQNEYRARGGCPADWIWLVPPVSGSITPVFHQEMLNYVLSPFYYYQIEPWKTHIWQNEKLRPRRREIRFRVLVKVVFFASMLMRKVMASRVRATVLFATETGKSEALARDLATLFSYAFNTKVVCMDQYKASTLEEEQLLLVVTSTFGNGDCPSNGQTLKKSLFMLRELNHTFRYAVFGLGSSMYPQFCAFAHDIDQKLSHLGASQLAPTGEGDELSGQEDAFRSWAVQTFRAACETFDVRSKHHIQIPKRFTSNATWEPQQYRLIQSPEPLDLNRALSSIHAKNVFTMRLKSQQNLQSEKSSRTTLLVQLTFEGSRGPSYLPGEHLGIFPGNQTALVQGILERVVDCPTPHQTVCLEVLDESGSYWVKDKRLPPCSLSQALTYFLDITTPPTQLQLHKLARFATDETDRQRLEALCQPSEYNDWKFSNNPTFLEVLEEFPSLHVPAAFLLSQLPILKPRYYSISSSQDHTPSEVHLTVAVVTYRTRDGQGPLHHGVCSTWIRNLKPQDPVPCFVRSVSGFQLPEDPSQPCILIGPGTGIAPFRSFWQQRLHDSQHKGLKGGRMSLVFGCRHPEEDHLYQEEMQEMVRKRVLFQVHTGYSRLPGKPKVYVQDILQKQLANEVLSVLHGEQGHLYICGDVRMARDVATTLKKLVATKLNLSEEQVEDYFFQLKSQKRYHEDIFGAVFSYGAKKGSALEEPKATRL
METHOD_DESCRIPTION: iNOS Dimerization Inhibition assay (Griess, Raw 264.7 cells, LPS/IFN-γ)
Type: cell-based, murine
PROPERTY_LABEL: IC50 (µM)

COc1ccc(CNC(=O)C[C@H]2CCCN2c2ccnc(-n3ccnc3)n2)cc1OC    0.62

P: O=C(C[C@H]1CCCN1c1ccnc(-n2ccnc2)n1)NCc1ccc2c(c1)OCO2
Q: CCOc1cc(CNC(=O)C[C@H]2CCCN2c2ccnc(-n3ccnc3)n2)ccc1OC
Enquiry: Recorded IC50 values differ for P and Q ; which one is higher? // output: label of the selected item
Return: Q
(Q: 3.7 µM, P: 0.1 µM)

----------
TARGET: nNOS (Rattus norvegicus)
Construct: expressed in transfected cells; host or cells: HEK293 (stably transduced, G418 selection)
Sequence (P29476 whole entry): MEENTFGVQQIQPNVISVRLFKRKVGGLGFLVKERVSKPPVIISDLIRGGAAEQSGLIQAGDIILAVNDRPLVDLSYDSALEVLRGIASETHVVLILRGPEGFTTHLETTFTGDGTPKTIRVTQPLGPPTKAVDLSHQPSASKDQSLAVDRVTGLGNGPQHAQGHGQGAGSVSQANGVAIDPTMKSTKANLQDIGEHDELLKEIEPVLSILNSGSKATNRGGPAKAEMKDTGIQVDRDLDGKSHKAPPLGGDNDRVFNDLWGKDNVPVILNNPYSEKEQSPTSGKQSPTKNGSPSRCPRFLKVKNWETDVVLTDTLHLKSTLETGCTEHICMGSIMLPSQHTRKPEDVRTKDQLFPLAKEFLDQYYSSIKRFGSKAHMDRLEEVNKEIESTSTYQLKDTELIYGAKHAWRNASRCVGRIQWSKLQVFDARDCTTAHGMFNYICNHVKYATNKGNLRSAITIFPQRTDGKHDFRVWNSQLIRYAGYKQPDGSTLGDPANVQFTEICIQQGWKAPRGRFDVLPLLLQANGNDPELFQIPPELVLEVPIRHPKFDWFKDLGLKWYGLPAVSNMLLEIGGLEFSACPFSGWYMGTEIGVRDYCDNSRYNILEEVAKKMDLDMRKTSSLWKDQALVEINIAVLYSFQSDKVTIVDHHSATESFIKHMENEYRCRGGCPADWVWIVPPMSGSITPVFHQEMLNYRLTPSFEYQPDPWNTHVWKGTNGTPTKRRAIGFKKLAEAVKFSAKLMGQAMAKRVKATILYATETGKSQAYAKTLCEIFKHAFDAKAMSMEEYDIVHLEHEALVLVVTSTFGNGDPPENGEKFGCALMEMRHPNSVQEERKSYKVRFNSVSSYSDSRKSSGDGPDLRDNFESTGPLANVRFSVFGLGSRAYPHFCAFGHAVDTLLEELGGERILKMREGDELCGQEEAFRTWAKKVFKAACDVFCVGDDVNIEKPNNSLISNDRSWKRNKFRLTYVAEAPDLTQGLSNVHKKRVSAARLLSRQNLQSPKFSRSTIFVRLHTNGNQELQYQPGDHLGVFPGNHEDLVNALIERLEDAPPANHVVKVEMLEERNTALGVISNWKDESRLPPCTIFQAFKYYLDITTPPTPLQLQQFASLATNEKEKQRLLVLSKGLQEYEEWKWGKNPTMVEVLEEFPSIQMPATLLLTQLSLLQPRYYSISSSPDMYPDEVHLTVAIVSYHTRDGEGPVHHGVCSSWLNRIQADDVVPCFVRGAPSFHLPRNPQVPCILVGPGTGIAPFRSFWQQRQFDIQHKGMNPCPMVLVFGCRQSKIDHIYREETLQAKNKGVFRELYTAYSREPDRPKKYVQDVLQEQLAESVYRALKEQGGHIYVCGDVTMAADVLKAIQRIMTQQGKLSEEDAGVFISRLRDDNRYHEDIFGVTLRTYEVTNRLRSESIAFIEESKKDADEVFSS
METHOD_DESCRIPTION: nNOS Dimerization Inhibition assay (Griess, Hek293 cells expressing rat nNOS)
Type: cell-based
PROPERTY_LABEL: IC50 (µM)

I: COc1ccc(CNC(=O)C[C@H]2CCCN2c2ccnc(-n3ccnc3)n2)cc1OC
II: O=C(C[C@H]1CCCN1c1ccnc(-n2ccnc2)n1)NCc1ccc2c(c1)OCO2
III: CCOc1cc(CNC(=O)C[C@H]2CCCN2c2ccnc(-n3ccnc3)n2)ccc1OC
Enquiry: Sort key: IC50. Order: high to low. Scope: items listed above. Answer with the labels in sequence, matching the requested order.
Return: III, II, I
(III: 6.7 µM, II: 0.2 µM, I: 0.14 µM)

FYI, the data here is from patent US20200377481A1.
